Study target: Cholinesterase (Homo sapiens, UniProt P06276)
Sequence (P06276 whole entry): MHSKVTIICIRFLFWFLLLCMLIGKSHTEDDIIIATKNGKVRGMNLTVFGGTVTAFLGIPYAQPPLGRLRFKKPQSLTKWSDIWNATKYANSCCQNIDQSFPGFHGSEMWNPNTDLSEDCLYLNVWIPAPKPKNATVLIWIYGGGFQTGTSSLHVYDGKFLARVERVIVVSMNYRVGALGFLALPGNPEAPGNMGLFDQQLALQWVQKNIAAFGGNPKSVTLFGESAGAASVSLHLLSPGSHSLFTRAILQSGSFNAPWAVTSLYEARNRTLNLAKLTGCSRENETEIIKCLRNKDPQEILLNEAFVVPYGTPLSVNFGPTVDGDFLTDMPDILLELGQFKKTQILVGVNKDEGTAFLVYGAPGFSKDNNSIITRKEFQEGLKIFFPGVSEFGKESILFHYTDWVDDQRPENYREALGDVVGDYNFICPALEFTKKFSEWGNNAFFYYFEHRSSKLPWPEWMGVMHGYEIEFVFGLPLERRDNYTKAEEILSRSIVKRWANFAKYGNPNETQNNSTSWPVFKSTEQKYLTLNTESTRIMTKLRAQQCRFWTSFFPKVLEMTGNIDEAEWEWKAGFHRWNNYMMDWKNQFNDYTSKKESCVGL
Method summary: Inhibition of human plasma BChE using butyrylthiocholine iodide as substrate preincubated for 20 mins followed by substrate addition and measured after 2.5 mins by DTNB reagent based spectrometric method
Labelling field: enter T if recorded IC50 is less than 30 nM. Enter F if it equals or exceeds that cut-off.

{"Molecule": "CN1c2ccc(OC(=O)NCCCCCCN3CCNCC3)cc2CN2CCc3ccccc3C21 (centres undefined)", "Assigned class": "F"}
{"Molecule": "CN1c2ccc(OC(=O)NCCCCCCN3CCc4ccccc4C3)cc2CN2CCc3ccccc3C21 (centres undefined)", "Assigned class": "T"}
{"Molecule": "CN1c2ccc(OC(=O)NCCCCCCN3CCCCC3)cc2CN2CCc3ccccc3C21 (centres undefined)", "Assigned class": "F"}
{"Molecule": "CN1c2ccc(OC(=O)NCCCCN3CCOCC3)cc2CN2CCc3ccccc3C21 (centres undefined)", "Assigned class": "F"}
{"Molecule": "CN1c2ccc(OC(=O)NCCN3CCc4ccccc4C3)cc2CN2CCc3ccccc3C21 (centres undefined)", "Assigned class": "F"}
{"Molecule": "CN1c2ccc(OC(=O)NCCCCCCn3ccnc3)cc2CN2CCc3ccccc3C21 (centres undefined)", "Assigned class": "T"}
{"Molecule": "CN1c2ccc(OC(=O)NCCCCCCCCN3CCOCC3)cc2CN2CCc3ccccc3C21 (centres undefined)", "Assigned class": "T"}
{"Molecule": "CN1c2ccc(OC(=O)NCCCCCCN3CCOCC3)cc2CN2CCc3ccccc3C21 (centres undefined)", "Assigned class": "F"}
{"Molecule": "CN1c2ccc(OC(=O)NCCCCCCCCCCN3CCOCC3)cc2CN2CCc3ccccc3C21 (centres undefined)", "Assigned class": "T"}
{"Molecule": "CN1c2ccc(OC(=O)NCCCCCCN3CCCC3)cc2CN2CCc3ccccc3C21 (centres undefined)", "Assigned class": "F"}
{"Molecule": "CN1c2ccc(OC(=O)NCCCCN3CCc4ccccc4C3)cc2CN2CCc3ccccc3C21 (centres undefined)", "Assigned class": "F"}
{"Molecule": "CN1c2ccc(OC(=O)NCCCCCCCCN3CCc4ccccc4C3)cc2CN2CCc3ccccc3C21 (centres undefined)", "Assigned class": "F"}
{"Molecule": "CN1c2ccc(OC(=O)NCCCN3CCc4ccccc4C3)cc2CN2CCc3ccccc3C21 (centres undefined)", "Assigned class": "F"}
{"Molecule": "CN1c2ccc(OC(=O)NCCCCCCN3CCN(C(=O)OC(C)(C)C)CC3)cc2CN2CCc3ccccc3C21 (centres undefined)", "Assigned class": "F"}

---

Listed below: Ratio IC50 values for each entry.
Study target: Cholinesterases; ACHE & BCHE (Homo sapiens) (UniProt P06276+P22303)
Sequence (P06276 whole entry, looked up): as the sequence (P06276 whole entry) above
Sequence (P22303 whole entry, looked up): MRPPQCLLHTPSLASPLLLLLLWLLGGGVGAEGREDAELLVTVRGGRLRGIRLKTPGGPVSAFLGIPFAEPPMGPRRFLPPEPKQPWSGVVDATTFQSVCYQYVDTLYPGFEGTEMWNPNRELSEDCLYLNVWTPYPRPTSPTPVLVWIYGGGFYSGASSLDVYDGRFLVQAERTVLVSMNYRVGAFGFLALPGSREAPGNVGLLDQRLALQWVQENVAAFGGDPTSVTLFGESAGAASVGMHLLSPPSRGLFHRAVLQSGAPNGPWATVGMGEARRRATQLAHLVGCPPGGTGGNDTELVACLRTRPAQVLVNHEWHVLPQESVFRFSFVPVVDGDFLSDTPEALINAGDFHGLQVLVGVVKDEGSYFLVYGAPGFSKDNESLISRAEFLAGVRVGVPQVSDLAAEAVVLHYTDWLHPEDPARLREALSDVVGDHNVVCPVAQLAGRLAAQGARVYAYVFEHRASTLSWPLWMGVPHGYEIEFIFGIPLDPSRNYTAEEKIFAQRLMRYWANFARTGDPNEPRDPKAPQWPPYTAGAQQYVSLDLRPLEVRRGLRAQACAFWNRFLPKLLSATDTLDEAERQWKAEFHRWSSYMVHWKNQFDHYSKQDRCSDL
Method summary: Selectivity index, ratio of IC50 for inhibition of human erythrocyte AChE to IC50 for inhibition of human plasma BChE
Assay type: protein assay
Measure: Ratio IC50

{"Molecule": "CN1c2ccc(OC(=O)NCCCCCCCCCCN3CCOCC3)cc2CN2CCc3ccccc3C21 (stereo not drawn)", "Readout value": "> 1000"}
{"Molecule": "CN1c2ccc(OC(=O)NCCCCCCn3cnc4ccccc43)cc2CN2CCc3ccccc3C21 (stereo not drawn)", "Readout value": "> 1000"}
{"Molecule": "CN1c2ccc(OC(=O)NCCCCCCN3CCCCC3)cc2CN2CCc3ccccc3C21 (stereo not drawn)", "Readout value": 14}
{"Molecule": "CN1c2ccc(OC(=O)NCCCCCCN3CCc4ccccc4C3)cc2CN2CCc3ccccc3C21 (stereo not drawn)", "Readout value": "> 1000"}
{"Molecule": "CN1c2ccc(OC(=O)NCCCCCCCCN3CCc4ccccc4C3)cc2CN2CCc3ccccc3C21 (stereo not drawn)", "Readout value": "> 1000"}
{"Molecule": "CN1c2ccc(OC(=O)NCCCCN3CCOCC3)cc2CN2CCc3ccccc3C21 (stereo not drawn)", "Readout value": "> 1000"}
{"Molecule": "CN1c2ccc(OC(=O)NCCCCCCCCN3CCOCC3)cc2CN2CCc3ccccc3C21 (stereo not drawn)", "Readout value": "> 1000"}
{"Molecule": "CN1c2ccc(OC(=O)NCCCN3CCc4ccccc4C3)cc2CN2CCc3ccccc3C21 (stereo not drawn)", "Readout value": "> 10"}
{"Molecule": "CN1c2ccc(OC(=O)NCCCCN3CCc4ccccc4C3)cc2CN2CCc3ccccc3C21 (stereo not drawn)", "Readout value": "> 100"}
{"Molecule": "CN1c2ccc(OC(=O)NCCN3CCOCC3)cc2CN2CCc3ccccc3C21 (stereo not drawn)", "Readout value": "> 10"}
{"Molecule": "CN1c2ccc(OC(=O)NCCCCCCN3CCNCC3)cc2CN2CCc3ccccc3C21 (stereo not drawn)", "Readout value": "> 100"}
{"Molecule": "CN1c2ccc(OC(=O)NCCCCCCn3ccnc3)cc2CN2CCc3ccccc3C21 (stereo not drawn)", "Readout value": "> 1000"}
{"Molecule": "CN1c2ccc(OC(=O)NCCN3CCc4ccccc4C3)cc2CN2CCc3ccccc3C21 (stereo not drawn)", "Readout value": "> 10"}
